Data origin: PubChem BioAssay (NCATS)

Tested on: Es-2
Experiment: Primary qHTS to identify gynecologic anti-cancer compounds using libraries of approved drugs and bioactive compounds (AID 1345084); note: nearly all actives have a fitted effect of over 55% in size; note: potency is the fitted concentration of half-maximal effect
Conditions: Gynecologic cancer cell panel viability, ATPlite luminescence, 48 h; series mostly up to 57.5 µM
Inconclusive results are not listed. The source made the active and inactive calls. Calls come from the whole dose curve; as a rule, active = well fitted cell-killing curve with a large enough effect; inconclusive = small, poorly fitted or top-dose-only effect, or effect the other way; inactive = flat fitted curve, though single readings scatter. Where a SMILES comes first, the peptide text is derived from it. The star is where a group is joined. AFC = O=c1cc(C(F)(F)F)c2ccc(N*)cc2o1
parameter: Potency

Example entries begin here.
molecule	target-entity	Potency
NC(=O)C(CCC(F)(F)F)N(Cc1ccc(-c2ncon2)cc1F)S(=O)(=O)c1ccc(Cl)cc1 (stereo not drawn)	Es-2	inactive
COc1cc(C2c3cc4c(c(O)c3CC(CO)C2C(=O)O)OCO4)cc(OC)c1O (stereo not drawn)	Es-2	3.55 µM (active)
Oc1ccc2nc(CN3CCC(Cc4ccccc4F)CC3)[nH]c2c1	Es-2	inactive
CC(=O)N[C@@H](Cc1c[nH]c2ccccc12)C(=O)N[C@@H](CCC(=O)O)C(=O)N[C@@H](Cc1cnc[nH]1)C(=O)N[C@@H](CC(=O)O)C(=O)Nc1ccc2c(C(F)(F)F)cc(=O)oc2c1 (Ac-WEHD-{AFC})	Es-2	inactive
O=C(O[C@H]1[C@@H]2C=CO[C@@H](O[C@@H]3O[C@H](CO)[C@@H](O)[C@H](O)[C@H]3O)[C@@H]2[C@@]2(CO)O[C@@H]12)c1ccccc1	Es-2	inactive

I need Potency for every entry listed below, if you could help.
1. CC(C)c1cc(C(=O)N2CC[C@@H](NC(=O)C3CC3)C2)n[nH]1
2. O=C(O)c1ccccc1NCCc1ccccc1
3. C=C(C(=O)O)C1CC(O)C2(C)CCCC(=C)C2C1 (stereo not drawn)

1. inactive
2. inactive
3. inactive

----------
Test: P-glycoprotein substrates identified in KB-8-5-11 adenocarcinoma cell line, qHTS therapeutic library screen (AID 1346987); note: nearly all actives have a fitted effect of over 65% in size
Settings: KB-8-5-11 (P-gp overexpressing) viability, CellTiter-Glo, 72 h; series mostly up to 44.5 µM
Inconclusive results are not listed. Calls of active or inactive are those of the source. Calls follow the shape of the dose curve; as a rule, active = well fitted inhibition curve with a large enough effect; inconclusive = small, poorly fitted or top-dose-only effect; inactive = flat fitted curve, though single readings scatter.
Assign a class; possible classes are yes (1) = active, no (0) = inactive

Short answer needed: outcome of this test for C=C1C(=O)OC2CC(C)=C(C(C)CCCO)C(O)C12 (stereo not given) ?
no (0)

For `C[C@@H]1CCC/C=C/[C@H]2CC(=O)C[C@@H]2[C@@H](O)/C=C/C(=O)O1` , what call appears in the results of this test?
no (0)

Hello, I am checking results. What call was entered for `C=C1C(=O)O[C@H](CCC)[C@H]1C(=O)O` ?
no (0)

So what was the verdict on `COc1cc(Br)c(S(=O)(=O)Nc2ccc(C(F)(F)F)c(O[C@@H]3CCN(C)C3)c2)cc1OC` in this test?
no (0)

Assay outcome for `C=CCC1=C[C@]2(OC)[C@H](C)[C@@H](c3ccc(O)c(OC)c3)O[C@]2(OC)CC1=O` : what was it?
no (0)

Call for entry `CC(C)C(=O)OC[C@H]1O[C@H](O[C@H]2O[C@H](CO)[C@@H](O)[C@H](O)[C@H]2O)[C@H](O)[C@@H](O)[C@@H]1O` :
no (0)

Called result for `COc1cc(-c2ncn(/C=C\C(=O)OC(C)C)n2)cc(C(F)(F)F)c1`
yes (1)

What did this assay record as the result for OCC1OC(Oc2cc(O)cc(/C=C/c3ccc(O)cc3)c2)C(O)C(O)C1O (stereo not given) ?
no (0)

Given COC(=O)/C=C/C12COC(C)(C)C1C(O)C(OC(C)=O)C1(C)C2CCC2(C)C(c3ccoc3)OC(=O)C3OC321 (stereo not given) , state the outcome it received in this test.
no (0)

Entry `O=C(NCc1ccccn1)Nc1nnc(-c2ccco2)o1` : call = ?
no (0)

----------
System: Es-2
Test: Primary qHTS to identify gynecologic anti-cancer compounds using libraries of approved drugs and bioactive compounds (AID 1345084); note: nearly all actives have a fitted effect of over 55% in size
Settings: Gynecologic cancer cell panel viability, ATPlite luminescence, 48 h; series mostly up to 57.5 µM
Description: National Center for Advancing Translational Sciences [NCATS] Assay Overview: Chemotherapeutic drug responses vary from cancer to cancer and from patient to patient. […] ATPlite is a luminescence based assay reliant on the conversion of a luciferase substrate to light in the presence of ATP. As a cytotoxic compound will suppress growth and decrease the number of cells, the concentration of ATP will decrease, and less light signal will be detected in the well. […]
Inconclusive results are not listed. Calls of active or inactive are those of the source. Calls come from the whole dose curve; as a rule, active = well fitted cell-killing curve with a large enough effect; inconclusive = small, poorly fitted or top-dose-only effect, or effect the other way; inactive = flat fitted curve, though single readings scatter.
// one of active, inactive, no free text

Check out these entries, answers already filled in.
compound	answer-label
O=C(O)COCCN1CCN([C@H](c2ccccc2)c2ccc(Cl)cc2)CC1	inactive
C=C[C@H]1CN2CC[C@H]1C[C@@H]2C(O)c1ccnc2ccc(OC)cc12 (some centres not stated)	inactive
COc1ccc(C[C@H](N)C(=O)N[C@@H]2[C@H](O)[C@H](n3cnc4c(N(C)C)ncnc43)O[C@@H]2CO)cc1	active
CC1(C)C=CN2C(=O)C3=CCCN3C(=O)[C@@H]2C[C@@]12Nc1ccccc1C2=O	inactive
Cc1nc([C@](C)(O)CO)sc1-c1cnc(N)c(O[C@H](C)c2cc(F)ccc2-n2nccn2)c1	inactive
Cc1cccc(-c2[nH]c(Cc3cccc(C(N)=O)c3)nc2-c2ccc3nccnc3c2)n1	inactive

// return assay outcome for `c1ccc(-c2csc(N3CCOCC3)n2)cc1`
inactive

Field: outcome | Entry: CC1=CC2C(CC1OC1OC(CO)C(O)C(O)C1O)C(C)CC(=O)C2C(C)C (configuration not stated)
inactive

Assay outcome for `Nc1nc(Nc2ccc(S(N)(=O)=O)cc2)n(C(=S)Nc2c(F)cccc2F)n1` : what was it?
inactive

For CC1=C(C)C(=O)OC(C(C)C2CCC3C4CC=C5CC(OC6OC(COC7OC(CO)C(O)C(O)C7O)C(O)C(O)C6O)CC(O)C5(C)C4CCC23C)C1 (configuration not stated) , what call appears in the results of this test?
inactive

Fill in: this test's call for CC1(C)CC[C@]2(C(=O)O[C@@H]3O[C@H](CO)[C@@H](O)[C@H](O)[C@H]3O)CC[C@]3(C)C(=CCC4[C@@]5(C)C[C@@H](O)[C@H](O)C(C)(C)C5CC[C@]43C)C2[C@@H]1O (some centres not stated) is ___
inactive

Answer briefly: the call reported for `C[C@H](O)[C@H](O)/C=C/c1cccc(O)c1CO` in this assay.
inactive

Answer briefly: the call reported for `FC(F)(F)c1ccc(Nc2nc(-c3c(C(F)(F)F)nc4ccccn34)cs2)cc1` in this assay.
active

----------
System: CRL-7250
Experiment: Cytotoxic Profiling of Annotated Libraries Using Quantitative High-Throughput Screening (AID 1296008); note: % is set by controls: 0 for no effect and ±100 for the full control effect; nearly all actives have a fitted effect of over 60% in size
Details: Five cell lines viability, CellTiter-Glo ATP luminescence, 48-72 h; active compounds read low
Records with an inconclusive call do not appear.
Kindly supply the reported max response values for the records listed here.
One number for each entry, in %.

// solved cases for max response follow
compound	target-entity	assay-value
COc1ccc(/C=C/C(=O)O[C@@H]2[C@@H](O)[C@H](C)O[C@@H](O[C@H]3[C@@H]4C=CO[C@@H](O[C@H]5O[C@@H](CO)[C@H](O)[C@@H](O)[C@@H]5O)[C@@H]4[C@@]4(CO)O[C@@H]34)[C@@H]2OC(C)=O)cc1	CRL-7250	-2.4
C[C@@H]1C(=O)O[C@H]2[C@@H](O)C34[C@H]5C[C@@H](C(C)(C)C)C36[C@@H](OC(=O)[C@@H]6O)O[C@@]4(C(=O)O5)[C@@]12O (stereo partly drawn)	CRL-7250	-0.587

Let us move to another entry and its max response.
max response lookup needed for `CC(=O)OC[C@H]1O[C@H](O[C@]2(CO)O[C@H](CO)[C@@H](OC(=O)/C=C/c3ccccc3)[C@@H]2O)[C@H](O)[C@@H](O)[C@@H]1O` , thanks.
-26.1

----------
Biological target: Glutathione peroxidase 1 (Homo sapiens)
Test: Primary qHTS Assay for Inhibitors of Recombinant Selenoprotein Glutathione Peroxidase 1 (GPX1) (AID 1845191); note: nearly all actives have a fitted effect of over 65% in size; for activity, negative = inhibition: % is set by controls: 0 for no effect and ±100 for the full control effect
Conditions: recombinant GPX1, GR-coupled NADPH fluorescence, 15 min; series mostly up to 48.8 µM
Inconclusive results are not listed. Calls of active or inactive are those of the source. The call rests on the fitted dose curve; in most records, active means well fitted inhibition curve with a large enough effect; inconclusive means small, poorly fitted or top-dose-only effect; inactive means flat fitted curve, though single readings scatter.
parameter: activity, negative = inhibition

compound	target-entity	activity, negative = inhibition
C[C@H]1CC(=O)Nc2cccc(-c3cnn(C(C)(C)C)c3)c2N1	Glutathione peroxidase 1 (Homo sapiens)	inactive
COCCOc1ccc(N2CCN(CCn3ncc4c3nc(N)n3nc(-c5ccco5)nc43)CC2)cc1	Glutathione peroxidase 1 (Homo sapiens)	inactive
COc1ccc(N(C)c2nc(C)nc3ccccc23)cc1	Glutathione peroxidase 1 (Homo sapiens)	inactive
O=C(NCc1ccccn1)Nc1nnc(-c2ccco2)o1	Glutathione peroxidase 1 (Homo sapiens)	inactive
C=C(C(=O)O)C1CCC2(C)CCCC(C)(O)C2C1 (centres undefined)	Glutathione peroxidase 1 (Homo sapiens)	inactive
CCOC(=O)c1cc(C#N)c(N2CCC(C(=O)NS(=O)(=O)Cc3ccccc3)CC2)nc1C	Glutathione peroxidase 1 (Homo sapiens)	inactive
CC1=C(C(=O)O)/C(=C\CO[C@@H]2O[C@H](CO)[C@@H](O)[C@H](O)[C@H]2O)C(OC(=O)/C=C\c2ccc(O)cc2)C1 (some centres undefined)	Glutathione peroxidase 1 (Homo sapiens)	inactive
CCN(CC)CCN(Cc1ccc(-c2ccc(C(F)(F)F)cc2)cc1)C(=O)Cn1c(SCc2ccc(F)cc2)nc(=O)c2c1CCC2	Glutathione peroxidase 1 (Homo sapiens)	inactive

Please turn your attention to the following entry.
What activity, negative = inhibition appears in the records for this compound with Glutathione peroxidase 1 (Homo sapiens)? `CC(C)[C@@H](CS(=O)(=O)C(C)C)N1C(=O)[C@@](C)(CC(=O)O)C[C@H](c2cccc(Cl)c2)[C@H]1c1ccc(Cl)cc1`
inactive
